molecular target: ZFP SBS#1045 (synthetic); assay: EMSA; details: tags: MBP fusion
Sequence (chain, as listed by the source): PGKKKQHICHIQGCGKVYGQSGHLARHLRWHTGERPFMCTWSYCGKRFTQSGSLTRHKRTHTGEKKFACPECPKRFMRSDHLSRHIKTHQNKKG
readout_kind: Kd (nM)
Give the value in nM but do not write nM after it.

Reported Kd for GGGGCAGGA (dsDNA) DNA 1: GGGGCAGGA DNA 2: TCCTGCCCC was 0.15
